protocol_summary: Drug cytotoxicity control plate assay (MTT cell proliferation)
particulars: mouse, uninfected J774 macrophages, MTT percent cell viability, range, range at the three concentrations tested
outcome_measure: viability

Tell me measured viability for CO[C@H]1/C=C/O[C@@]2(C)Oc3c(C)c(O)c4c(O)c(c(/C=N/N5CCN(C)CC5)c(O)c4c3C2=O)NC(=O)/C(C)=C\C=C\[C@H](C)[C@H](O)[C@@H](C)[C@@H](O)[C@@H](C)[C@H](OC(C)=O)[C@@H]1C [RMP, Rifampicin, reference compound] please.
84 to 92%

----------
Test system: Mtb H37Rv (SRI 1345)
protocol_summary: MIC broth microdilution, Mtb H37Rv
Type: cell-based
particulars: Mycobacterium tuberculosis, 168 h, read-out: MIC H37Rv
outcome_measure: MIC (µM)
Your answer is read as µM, so omit the unit and give the number.

[
  {
    "molecule": "Cc1cn(CC2CN(c3ccc(N4CCN(C(=O)CN)CC4)c(F)c3)C(=O)O2)nn1 (stereo not drawn) [PH-151]",
    "reported_result": 5.8
  },
  {
    "molecule": "O=C(NCC(=O)N1CCN(c2ccc(N3CC(Cn4ccnn4)OC3=O)cc2F)CC1)c1ccc([N+](=O)[O-])o1 (stereo not drawn) [PH-189]",
    "reported_result": 0.5
  },
  {
    "molecule": "CO[C@H]1/C=C/O[C@@]2(C)Oc3c(C)c(O)c4c(O)c(c(/C=N/N5CCN(C)CC5)c(O)c4c3C2=O)NC(=O)/C(C)=C\\C=C\\[C@H](C)[C@H](O)[C@@H](C)[C@@H](O)[C@@H](C)[C@H](OC(C)=O)[C@@H]1C [RMP, Rifampicin, reference compound]",
    "reported_result": 0.06
  },
  {
    "molecule": "Cc1cn(CC2CN(c3ccc(N4CCN(C(=O)CNC(=O)c5ccc([N+](=O)[O-])o5)CC4)c(F)c3)C(=O)O2)nn1 (stereo not drawn) [PH-145]",
    "reported_result": 0.5
  },
  {
    "molecule": "Cc1cn(CC2CN(c3ccc(N4CCN(C(=O)CNC(=O)c5cc([N+](=O)[O-])cc([N+](=O)[O-])c5)CC4)c(F)c3)C(=O)O2)nn1 (stereo not drawn) [PH-181]",
    "reported_result": 3.3
  }
]

Turning now to a further molecule:
Tell me measured MIC for CC(=O)NCC(=O)N1CCN(c2ccc(N3CC(Cn4ccnn4)OC3=O)cc2F)CC1 (stereo not drawn) [PH-165] please.
6.7

----------
protocol_summary: Drug cytotoxicity control plate assay (MTT cell proliferation)
particulars: mouse, MTT % Viability (Mid Conc.), mid conc., same as in macrophage assay
outcome_measure: viability (%)
Your answer is read as %, so omit the unit and give the number.

[
  {
    "compound": "Cc1cn(CC2CN(c3ccc(N4CCN(C(=O)CNC(=O)c5cc([N+](=O)[O-])cc([N+](=O)[O-])c5)CC4)c(F)c3)C(=O)O2)nn1 (centres unmarked)",
    "endpoint_unit": "%",
    "reported_result": 88
  }
]

Tell me measured viability for O=C(NCC(=O)N1CCN(c2ccc(N3CC(Cn4ccnn4)OC3=O)cc2F)CC1)c1cc([N+](=O)[O-])cc([N+](=O)[O-])c1 (centres unmarked) please.
100

----------
viability: recorded values
protocol_summary: Drug cytotoxicity control plate assay (MTT cell proliferation)
particulars: mouse, MTT % Viability (Low Conc.), low conc., same as in macrophage assay
Your answer is read as %, so omit the unit and give the number.

[
  {
    "compound": "O=C(NCC(=O)N1CCN(c2ccc(N3CC(Cn4ccnn4)OC3=O)cc2F)CC1)c1cc([N+](=O)[O-])cc([N+](=O)[O-])c1 (centres unmarked)",
    "viability [%]": 100
  }
]

Turning now to a further compound:
Tell me measured viability for Cc1cn(CC2CN(c3ccc(N4CCN(C(=O)CNC(=O)c5cc([N+](=O)[O-])cc([N+](=O)[O-])c5)CC4)c(F)c3)C(=O)O2)nn1 (centres unmarked) please.
91

----------
viability: recorded values
protocol_summary: in vitro
particulars: mouse, MTT % Viability (Mid Conc.)
Your answer is read as %, so omit the unit and give the number.

Example entries and their recorded answers appear below.
[
  {
    "compound": "NCC(=O)N1CCN(c2ccc(N3CC(Cn4ccnn4)OC3=O)cc2F)CC1 (stereo not shown)",
    "viability, %": 72
  },
  {
    "compound": "CCOC(=O)CC(=O)NCC(=O)N1CCN(c2ccc(N3CC(Cn4cc(C)nn4)OC3=O)cc2F)CC1 (stereo not shown)",
    "viability, %": 82
  },
  {
    "compound": "CC(=O)NCC(=O)N1CCN(c2ccc(N3CC(Cn4ccnn4)OC3=O)cc2F)CC1 (stereo not shown)",
    "viability, %": 87
  },
  {
    "compound": "Cc1cn(CC2CN(c3ccc(N4CCN(C(=O)CNC(=O)C(Cl)Cl)CC4)c(F)c3)C(=O)O2)nn1 (stereo not shown)",
    "viability, %": 90
  },
  {
    "compound": "CCOC(=O)CC(=O)NCC(=O)N1CCN(c2ccc(N3CC(Cn4ccnn4)OC3=O)cc2F)CC1 (stereo not shown)",
    "viability, %": 75
  },
  {
    "compound": "Cc1cn(CC2CN(c3ccc(N4CCN(C(=O)CNC(=O)c5ccc([N+](=O)[O-])o5)CC4)c(F)c3)C(=O)O2)nn1 (stereo not shown)",
    "viability, %": 93
  },
  {
    "compound": "O=C(NCC(=O)N1CCN(c2ccc(N3CC(Cn4ccnn4)OC3=O)cc2F)CC1)c1cccnc1 (stereo not shown)",
    "viability, %": 100
  },
  {
    "compound": "Cc1cn(CC2CN(c3ccc(N4CCN(C(=O)CN)CC4)c(F)c3)C(=O)O2)nn1 (stereo not shown)",
    "viability, %": 87
  }
]

Tell me measured viability for O=C(NCC(=O)N1CCN(c2ccc(N3CC(Cn4ccnn4)OC3=O)cc2F)CC1)c1ccc([N+](=O)[O-])o1 (stereo not shown) please.
88

Tell me measured viability for Cc1cn(CC2CN(c3ccc(N4CCN(C(=O)CNC(=O)c5cccnc5)CC4)c(F)c3)C(=O)O2)nn1 (stereo not shown) please.
94

----------
protocol_summary: Drug cytotoxicity control plate assay (MTT cell proliferation)
particulars: mouse, uninfected J774 macrophages, MTT % Viability (High Conc.), high conc., same as in macrophage assay
outcome_measure: viability (%)
Your answer is read as %, so omit the unit and give the number.

Tell me measured viability for CO[C@H]1/C=C/O[C@@]2(C)Oc3c(C)c(O)c4c(O)c(c(/C=N/N5CCN(C)CC5)c(O)c4c3C2=O)NC(=O)/C(C)=C\C=C\[C@H](C)[C@H](O)[C@@H](C)[C@@H](O)[C@@H](C)[C@H](OC(C)=O)[C@@H]1C [RMP, Rifampicin, reference compound] please.
84

----------
Test system: Mtb H37Rv (SRI 1345)
protocol_summary: MIC broth microdilution, Mtb H37Rv
Format: cell-based
particulars: Mycobacterium tuberculosis, 168 h, read-out: MIC H37Rv
MIC: recorded values
Your answer is read as µM, so omit the unit and give the number.

Example entries and their recorded answers appear below.
[
  {
    "compound": "O=C(NCC(=O)N1CCN(c2ccc(N3CC(Cn4ccnn4)OC3=O)cc2F)CC1)c1cccnc1 (stereo not shown)",
    "MIC, µM": 3.9
  },
  {
    "compound": "Cc1cn(CC2CN(c3ccc(N4CCN(C(=O)CNC(=O)C(Cl)Cl)CC4)c(F)c3)C(=O)O2)nn1 (stereo not shown)",
    "MIC, µM": 1.9
  },
  {
    "compound": "NCC(=O)N1CCN(c2ccc(N3CC(Cn4ccnn4)OC3=O)cc2F)CC1 (stereo not shown)",
    "MIC, µM": 3.6
  }
]

Tell me measured MIC for O=C(NCC(=O)N1CCN(c2ccc(N3CC(Cn4ccnn4)OC3=O)cc2F)CC1)c1cc([N+](=O)[O-])cc([N+](=O)[O-])c1 (stereo not shown) please.
1.7

Tell me measured MIC for CCOC(=O)CC(=O)NCC(=O)N1CCN(c2ccc(N3CC(Cn4ccnn4)OC3=O)cc2F)CC1 (stereo not shown) please.
2.9

Tell me measured MIC for CCOC(=O)CC(=O)NCC(=O)N1CCN(c2ccc(N3CC(Cn4cc(C)nn4)OC3=O)cc2F)CC1 (stereo not shown) please.
5.8

----------
protocol_summary: in vitro
particulars: mouse, MTT % Viability (High Conc.)
Consider the reported viability of an entry and match it to a band in range A: < 70%; range B: ≥ 70% and < 80%; range C: ≥ 80%

Example results:
[
  {
    "compound": "Cc1cn(CC2CN(c3ccc(N4CCN(C(=O)CNC(=O)c5cccnc5)CC4)c(F)c3)C(=O)O2)nn1 (stereo not shown) [PH-185]",
    "class_name": "range A"
  },
  {
    "compound": "CC(=O)NCC(=O)N1CCN(c2ccc(N3CC(Cn4ccnn4)OC3=O)cc2F)CC1 (stereo not shown) [PH-165]",
    "class_name": "range C"
  },
  {
    "compound": "O=C(NCC(=O)N1CCN(c2ccc(N3CC(Cn4ccnn4)OC3=O)cc2F)CC1)c1ccc([N+](=O)[O-])o1 (stereo not shown) [PH-189]",
    "class_name": "range C"
  },
  {
    "compound": "Cc1cn(CC2CN(c3ccc(N4CCN(C(=O)CN)CC4)c(F)c3)C(=O)O2)nn1 (stereo not shown) [PH-151]",
    "class_name": "range B"
  },
  {
    "compound": "CCOC(=O)CC(=O)NCC(=O)N1CCN(c2ccc(N3CC(Cn4cc(C)nn4)OC3=O)cc2F)CC1 (stereo not shown) [PH-150]",
    "class_name": "range A"
  },
  {
    "compound": "Cc1cn(CC2CN(c3ccc(N4CCN(C(=O)CNC(=O)c5ccc([N+](=O)[O-])o5)CC4)c(F)c3)C(=O)O2)nn1 (stereo not shown) [PH-145]",
    "class_name": "range B"
  },
  {
    "compound": "CCOC(=O)CC(=O)NCC(=O)N1CCN(c2ccc(N3CC(Cn4ccnn4)OC3=O)cc2F)CC1 (stereo not shown) [PH-169]",
    "class_name": "range B"
  }
]

We now examine a further compound.
Band for the recorded viability of Cc1cn(CC2CN(c3ccc(N4CCN(C(=O)CNC(=O)C(Cl)Cl)CC4)c(F)c3)C(=O)O2)nn1 (stereo not shown) [PH-182] ?
range C
